Data provenance: patent US8916561B2

pIC50: −log10 of the molar value.
In what follows, each item is paired with its pIC50 for PASK (Invitrogen) (Homo sapiens, UniProt Q96RG2).

Which pIC50 is reported for this compound? CC(C)N(C)c1nc2cc(-c3nnn[nH]3)ccc2nc1-c1ccc2[nH]ncc2c1 [Example 31]
≥ 5.00

Below: the item to evaluate.
Which pIC50 is reported for this compound? CC(C)N(C)c1nc2cc(C(N)=O)ccc2nc1-c1ccc(F)cc1 [Example 1]
≥ 5.00
